Tested on: Mycobacterium kansasii
Assay: Antimycobacterial activity against Mycobacterium kansasii CNCTC My 235/80 after 14 days
Type: functional
Details: CNCTC My 235/80, 336 h
A collection of compounds and their measured MIC99
measured_property: MIC99 (µM)

{"columns": ["input_smiles", "measurement_target", "measured_property", "unit_abbreviation", "qualifier_symbol", "assay_result"],
 "data": [
  ["O=[N+]([O-])c1cc(CSc2nnc(-c3ccc(Cl)cc3)n2Cc2ccccc2)cc(C(F)(F)F)c1", "Mycobacterium kansasii", "MIC99", "µM", ">", 32],
  ["O=[N+]([O-])c1cc(-c2nnc(SCc3ccc(Cl)c(Cl)c3)n2Cc2ccccc2)cc(C(F)(F)F)c1", "Mycobacterium kansasii", "MIC99", "µM", "=", 4],
  ["CCCCCCn1c(SCc2cc([N+](=O)[O-])cc([N+](=O)[O-])c2)nnc1-c1ccccc1", "Mycobacterium kansasii", "MIC99", "µM", "=", 1],
  ["Cc1ccc(-c2nnc(SCc3cc([N+](=O)[O-])cc([N+](=O)[O-])c3)n2Cc2ccccc2)cc1", "Mycobacterium kansasii", "MIC99", "µM", "=", 4],
  ["O=[N+]([O-])c1cc(-c2nnc(SCc3ccc(Br)cc3)n2Cc2ccccc2)cc([N+](=O)[O-])c1", "Mycobacterium kansasii", "MIC99", "µM", "=", 0.25],
  ["O=[N+]([O-])c1cc(-c2nnc(SCc3ccc(Cl)cc3)n2Cc2ccccc2)cc([N+](=O)[O-])c1", "Mycobacterium kansasii", "MIC99", "µM", "=", 0.25],
  ["O=[N+]([O-])c1cc(-c2nnc(SCc3ccccc3)n2Cc2ccc(Cl)cc2Cl)cc([N+](=O)[O-])c1", "Mycobacterium kansasii", "MIC99", "µM", "=", 4],
  ["COc1ccc(CSc2nnc(-c3cc([N+](=O)[O-])cc([N+](=O)[O-])c3)n2C)cc1", "Mycobacterium kansasii", "MIC99", "µM", "=", 2]
]}
